Values compiled from ChEMBL document CHEMBL2218924.

# ASSAY TARGET: Testis-specific serine/threonine-protein kinase 2 (Homo sapiens) (UniProt Q96PF2)
# Sequence (Q96PF2 whole entry): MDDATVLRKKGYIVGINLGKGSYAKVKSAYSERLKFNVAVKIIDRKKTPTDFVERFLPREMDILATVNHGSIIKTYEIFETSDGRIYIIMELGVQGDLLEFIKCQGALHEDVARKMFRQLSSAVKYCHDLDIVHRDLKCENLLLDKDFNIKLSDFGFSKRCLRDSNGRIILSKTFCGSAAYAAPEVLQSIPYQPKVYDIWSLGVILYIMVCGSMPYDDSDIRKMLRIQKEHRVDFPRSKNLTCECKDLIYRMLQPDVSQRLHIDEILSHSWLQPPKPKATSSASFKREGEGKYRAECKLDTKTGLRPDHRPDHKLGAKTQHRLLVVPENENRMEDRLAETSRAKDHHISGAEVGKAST
# DETAILS: at 10 µM
ASSAY READOUT: residual activity
Provide a numeric answer, followed by its unit.

Observe how each entry below is paired with its result.
| SMILES DATA | residual activity |
| --- | --- |
| Cc1cccc(-c2[nH]c(C(C)(C)C)nc2-c2ccc3c(c2)OCO3)n1 | 94% |
| O=Nc1c(-c2c(O)[nH]c3ccccc23)[nH]c2ccccc12 | 78% |
| Cc1ccc(S(=O)(=O)/C=C/C#N)cc1 | 91% |
| O=C1NC(=O)c2c1c1c3ccccc3[nH]c1c1[nH]c3cc(Br)ccc3c21 | 86% |
| CO[C@H]1C[C@@H]2CC[C@@H](C)[C@@](O)(O2)C(=O)C(=O)N2CCCC[C@H]2C(=O)O[C@H]([C@H](C)C[C@@H]2CC[C@@H](O)[C@H](OC)C2)CC(=O)[C@H](C)/C=C(\C)[C@@H](O)[C@@H](OC)C(=O)[C@H](C)C[C@H](C)/C=C/C=C/C=C/1C | 106% |

Measured on Testis-specific serine/threonine-protein kinase 2 (Homo sapiens) (UniProt Q96PF2), `COc1cc2ncnc(N3CCN(C(=O)Nc4ccc(Oc5ccccc5)cc4)CC3)c2cc1OC` has a documented residual activity of 117%

Measured on Testis-specific serine/threonine-protein kinase 2 (Homo sapiens) (UniProt Q96PF2), `CCN(CC)C(=O)c1ccc(Nc2nc(OCC3CCCCC3)c3nc[nH]c3n2)cc1` has a documented residual activity of 14%

Measured on Testis-specific serine/threonine-protein kinase 2 (Homo sapiens) (UniProt Q96PF2), `O=c1c2ccccc2[nH]c(=S)n1CCN1CCC(=C(c2ccc(F)cc2)c2ccc(F)cc2)CC1` has a documented residual activity of 70%

* * *

In this section we review reported residual activity values for a set of compounds.
# ASSAY TARGET: Serine/threonine-protein kinase Nek2 (Homo sapiens) (UniProt P51955)
# Sequence (P51955 whole entry): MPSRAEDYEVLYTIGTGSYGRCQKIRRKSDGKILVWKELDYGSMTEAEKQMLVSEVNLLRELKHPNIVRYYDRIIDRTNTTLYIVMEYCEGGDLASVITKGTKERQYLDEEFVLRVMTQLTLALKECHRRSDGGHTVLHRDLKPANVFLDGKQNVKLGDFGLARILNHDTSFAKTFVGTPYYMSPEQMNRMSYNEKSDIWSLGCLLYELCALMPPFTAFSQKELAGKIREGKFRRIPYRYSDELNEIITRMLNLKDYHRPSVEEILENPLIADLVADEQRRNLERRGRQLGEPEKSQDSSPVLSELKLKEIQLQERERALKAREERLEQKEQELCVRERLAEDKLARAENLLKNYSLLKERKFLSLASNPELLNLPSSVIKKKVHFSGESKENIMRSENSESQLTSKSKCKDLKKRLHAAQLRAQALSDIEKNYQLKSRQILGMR
# DETAILS: at 10 µM
# Description: Millipore: Percentage of residual kinase activity of NEK2 at 10uM relative to control. Control inhibitor: Phosphoric acid* at 0.3uM. Buffer: 8 mM MOPS pH 7.0, 0.2 mM EDTA
Answer with a number only, understood to be in %.

# residual activity of `Cn1cc(/C=C2\C(=O)Nc3ccc(S(N)(=O)=O)cc32)c2ccccc21` = 26

* * *

# ASSAY TARGET: Tyrosine-protein kinase HCK (Homo sapiens) (UniProt P08631)
# Sequence (P08631 2-526 limits assumed): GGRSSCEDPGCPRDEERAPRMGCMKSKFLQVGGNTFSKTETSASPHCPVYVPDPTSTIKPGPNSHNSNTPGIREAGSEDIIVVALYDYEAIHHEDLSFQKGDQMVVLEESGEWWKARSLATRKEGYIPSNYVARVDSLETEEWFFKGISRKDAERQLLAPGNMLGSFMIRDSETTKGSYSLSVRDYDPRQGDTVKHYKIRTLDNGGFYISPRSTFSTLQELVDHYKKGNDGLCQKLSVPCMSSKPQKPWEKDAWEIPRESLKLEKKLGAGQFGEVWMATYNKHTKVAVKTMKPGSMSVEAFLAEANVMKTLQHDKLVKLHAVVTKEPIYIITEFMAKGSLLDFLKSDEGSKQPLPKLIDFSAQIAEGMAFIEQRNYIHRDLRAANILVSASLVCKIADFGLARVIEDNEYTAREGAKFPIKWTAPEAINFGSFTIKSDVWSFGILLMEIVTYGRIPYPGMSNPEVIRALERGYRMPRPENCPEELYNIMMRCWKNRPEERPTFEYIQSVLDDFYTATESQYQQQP
# DETAILS: at 1 µM
ASSAY READOUT: residual activity

Observe how each entry below is paired with its result.
| SMILES DATA | residual activity |
| --- | --- |
| O=C1NC(=O)c2cc(Nc3ccc(F)cc3)c(Nc3ccc(F)cc3)cc21 | 63% |
| Cc1nc2cc3nc(-c4cccs4)cnc3cc2n1C | 92% |
| Cc1cccc(-c2[nH]c(C(C)(C)C)nc2-c2ccc3c(c2)OCO3)n1 | 94% |
| O=C(Nc1cccc(Nc2cc(Nc3cccc(C(F)(F)F)c3)ncn2)c1)C1CC1 | 96% |
| COc1cc2ncc(-c3ccccc3)nc2cc1OC | 69% |
| Oc1n[nH]c2nnc(-c3c(-c4ccccc4)nn4ccccc34)cc12 | 75% |
| c1ccc(-c2n[nH]cc2-c2ccnc3ccccc23)nc1 | 86% |
| Cc1cc(Nc2nc(-c3ccccc3)nc3ccccc23)n[nH]1 | 23% |
| c1ccc(-c2n[nH]c3c2oc2ccccc23)cc1 | 71% |
| O=Nc1c(-c2c(O)[nH]c3ccccc23)[nH]c2ccccc12 | 15% |

Now for another entry.
# residual activity of `COc1ccc(S(=O)(=O)N(CCO)c2ccccc2CN(C)C/C=C/c2ccc(Cl)cc2)cc1` = 87%
